target: Neuronal acetylcholine receptor; alpha3/beta4 (Rattus norvegicus, UniProt P04757+P12392); assay: Agonist activity at rat alpha-3-beta-4 nAChR expressed in HEK293 cells by FMP assay; format: functional, cell-based; settings: read-out: pKi (converted)
Sequence (P04757 whole entry): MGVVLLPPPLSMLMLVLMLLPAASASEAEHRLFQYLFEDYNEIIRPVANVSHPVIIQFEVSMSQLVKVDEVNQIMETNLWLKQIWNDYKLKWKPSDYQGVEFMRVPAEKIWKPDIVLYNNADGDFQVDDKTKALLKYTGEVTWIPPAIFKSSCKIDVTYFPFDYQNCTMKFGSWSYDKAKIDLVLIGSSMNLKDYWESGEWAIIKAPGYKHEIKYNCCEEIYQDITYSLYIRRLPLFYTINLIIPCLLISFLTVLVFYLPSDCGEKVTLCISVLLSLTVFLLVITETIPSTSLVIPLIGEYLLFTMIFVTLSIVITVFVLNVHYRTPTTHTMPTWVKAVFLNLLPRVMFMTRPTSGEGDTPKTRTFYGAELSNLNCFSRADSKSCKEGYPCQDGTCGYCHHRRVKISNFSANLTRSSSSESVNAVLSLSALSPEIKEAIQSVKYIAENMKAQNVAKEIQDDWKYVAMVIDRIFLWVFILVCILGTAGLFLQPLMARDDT
Sequence (P12392 whole entry): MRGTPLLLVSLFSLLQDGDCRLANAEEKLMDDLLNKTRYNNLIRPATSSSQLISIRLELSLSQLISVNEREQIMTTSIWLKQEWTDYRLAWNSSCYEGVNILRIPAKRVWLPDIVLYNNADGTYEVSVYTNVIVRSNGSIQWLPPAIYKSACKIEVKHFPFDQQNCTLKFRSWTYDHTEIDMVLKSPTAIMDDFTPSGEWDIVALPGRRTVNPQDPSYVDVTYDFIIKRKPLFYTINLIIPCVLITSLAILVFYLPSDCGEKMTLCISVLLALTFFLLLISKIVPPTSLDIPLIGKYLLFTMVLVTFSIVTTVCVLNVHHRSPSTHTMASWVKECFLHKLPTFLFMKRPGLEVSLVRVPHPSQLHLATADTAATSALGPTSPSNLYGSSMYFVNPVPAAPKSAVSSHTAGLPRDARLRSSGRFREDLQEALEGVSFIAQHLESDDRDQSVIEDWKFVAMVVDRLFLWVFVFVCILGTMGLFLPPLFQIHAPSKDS
Reported values of Ki for individual entries
measured_metric: Ki

{"columns": ["compound", "measured_metric", "assay_value"],
 "data": [
  ["CC(CCOC(=O)n1cccc1)N(C)C (configuration not stated)", "Ki", "316 µM"],
  ["CC(CCOC(=O)N1CCC1)N(C)C (configuration not stated)", "Ki", "25.1 µM"],
  ["CC(CCOC(=O)N1CCC1C)N(C)C (configuration not stated)", "Ki", "5.01 µM"],
  ["CC(CCOC(=O)N1CCC1(C)C)N(C)C (configuration not stated)", "Ki", "50.1 µM"],
  ["CC(CCOC(=O)N(C)C)N(C)C (configuration not stated)", "Ki", "7.94 µM"],
  ["CC1CN(C(=O)OCCC(C)N(C)C)C1 (configuration not stated)", "Ki", "50.1 µM"],
  ["CC(CCOC(=O)N1CC(C)(C)C1)N(C)C (configuration not stated)", "Ki", "316 µM"]
]}
